Values from patent US20120010173A1

Experiment: Chemical stability in pharmaceutical solvents (weight % remaining in solution, LCMS)
Type: physicochemical
Settings: H2O (pH = 7), 14 days
MEASURED METRIC: weight percentage that remained in solution (% w/w)

C[N+](C)(C)CCOP(=O)([O-])OC(Cn1cncn1)(Cn1cncn1)c1ccc(F)cc1F = 99.6
CCCCCCCCCC(=O)OCC(COP(=O)([O-])OC(Cn1cncn1)(Cn1cncn1)c1ccc(F)cc1F)OC(=O)CCCCCCCCC.[Na+] (centres unmarked) = 95.4
CCCCCCCCCOP(=O)([O-])OC(Cn1cncn1)(Cn1cncn1)c1ccc(F)cc1F.[Na+] = 99.4
CCCCCCCCCOCCOP(=O)([O-])OC(Cn1cncn1)(Cn1cncn1)c1ccc(F)cc1F.[Na+] = 95.1
CCCCCCCCCC(=O)OCCOP(=O)([O-])OC(Cn1cncn1)(Cn1cncn1)c1ccc(F)cc1F.[Na+] = 97.9
